B1: ADAMTS4 (parent)
chain: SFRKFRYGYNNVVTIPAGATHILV

variants of: B1; assay: protein stability index of a GFP-peptide fusion (GPS, HEK-293T) (PSI 1-6); higher = more stable; settings: c terminus: a fixed tail appended;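 note: lentivirally expressed fusions sorted by FACS into six bins by GFP to DsRed ratio, PSI derived from sequencing read proportions per bin multiplied by bin number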
parameter: protein stability index
Respond with the number and no other words.

Some entries whose results are on file:
SFRKFRRGYNNVVTIPAGATHILV: 2.8
SFRKFYYGYNNVVTIPAGATHILV: 2.15
SFRKFRYGYNNVVTIPAGATNILV: 2.65
SFRKFRYAYNNVVTIPAGATHILV: 2.21
SFRKFRYGYNNVVTIPAGPTHILV: 2.17

# protein stability index of `SFRKFRYGYNLVVTIPAGATHILV` = 1.53

# protein stability index of `SFRKFRYGYNNVVTIPAGATHIEV` = 1.32

src = the supplement of paper PMC10567573
